Target: RALA (Homo sapiens, UniProt P11233)
Construct: recombinant RALA, site-specifically biotinylated on the N-terminus
Sequence (P11233 1-203): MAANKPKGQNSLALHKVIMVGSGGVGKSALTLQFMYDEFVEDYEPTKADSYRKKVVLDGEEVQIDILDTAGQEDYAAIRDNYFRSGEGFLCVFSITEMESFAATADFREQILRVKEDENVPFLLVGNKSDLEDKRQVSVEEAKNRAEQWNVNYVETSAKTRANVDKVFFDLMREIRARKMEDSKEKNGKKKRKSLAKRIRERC
Assay: SPR (Biacore 8K, steady-state affinity, biotinylated RALA on SA chip)
Type: binding
pKd: −log10 of the molar value.
readout label: pKd

substance=OSURALi measured_target="RALA (Homo sapiens, UniProt P11233)" readout_label=pKd observed=6.02

Just for reference, paper PMC11394424 is where these values come from.
